TARGET DESC: adrenergic α2C receptor (Homo sapiens, UniProt P18825)
Sequence (P18825 whole entry): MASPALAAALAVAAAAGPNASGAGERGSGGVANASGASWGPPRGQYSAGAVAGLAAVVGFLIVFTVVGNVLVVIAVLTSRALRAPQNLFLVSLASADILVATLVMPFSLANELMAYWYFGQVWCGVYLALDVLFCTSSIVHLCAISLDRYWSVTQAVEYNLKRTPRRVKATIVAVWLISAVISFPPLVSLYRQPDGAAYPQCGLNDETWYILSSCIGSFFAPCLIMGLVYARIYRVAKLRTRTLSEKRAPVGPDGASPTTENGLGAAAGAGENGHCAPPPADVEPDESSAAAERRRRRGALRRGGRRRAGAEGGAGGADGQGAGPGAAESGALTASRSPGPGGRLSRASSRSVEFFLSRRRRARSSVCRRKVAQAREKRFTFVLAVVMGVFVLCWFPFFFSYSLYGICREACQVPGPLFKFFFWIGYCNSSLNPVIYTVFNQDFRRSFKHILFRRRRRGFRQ
PROTOCOL SUMMARY: Cellular functional assay, adrenergic α2C receptor (agonism/antagonism)
Assay type: cell-based
STATED CONDITIONS: agonist effect, percent of control specific agonist response; compounds tested at 1×10^−6M; read-out: α2C −ag [%]

{"SMILES STRING": "O=S(=O)(NCCCCN1CCN(c2noc3ccccc23)CC1)c1cccc2ccccc12", "TARGET DESC": "adrenergic α2C receptor (Homo sapiens, UniProt P18825)", "UNIT SPEC": "%", "activation at 1 µM": -7}
{"SMILES STRING": "N#Cc1cccc(S(=O)(=O)NCCCN2CCC(c3noc4cc(F)ccc34)CC2)c1", "TARGET DESC": "adrenergic α2C receptor (Homo sapiens, UniProt P18825)", "UNIT SPEC": "%", "activation at 1 µM": -3}
{"SMILES STRING": "O=S(=O)(NCCCCN1CCN(c2nsc3ccccc23)CC1)c1cccc2ccccc12", "TARGET DESC": "adrenergic α2C receptor (Homo sapiens, UniProt P18825)", "UNIT SPEC": "%", "activation at 1 µM": -9}
{"SMILES STRING": "O=S(=O)(NCCCN1CCC(c2noc3cc(F)ccc23)CC1)c1ccc2cc(Cl)ccc2c1", "TARGET DESC": "adrenergic α2C receptor (Homo sapiens, UniProt P18825)", "UNIT SPEC": "%", "activation at 1 µM": -1}

====

TARGET DESC: serotoninergic 5-HT2A receptor (Homo sapiens, UniProt P28223)
Sequence (P28223 whole entry): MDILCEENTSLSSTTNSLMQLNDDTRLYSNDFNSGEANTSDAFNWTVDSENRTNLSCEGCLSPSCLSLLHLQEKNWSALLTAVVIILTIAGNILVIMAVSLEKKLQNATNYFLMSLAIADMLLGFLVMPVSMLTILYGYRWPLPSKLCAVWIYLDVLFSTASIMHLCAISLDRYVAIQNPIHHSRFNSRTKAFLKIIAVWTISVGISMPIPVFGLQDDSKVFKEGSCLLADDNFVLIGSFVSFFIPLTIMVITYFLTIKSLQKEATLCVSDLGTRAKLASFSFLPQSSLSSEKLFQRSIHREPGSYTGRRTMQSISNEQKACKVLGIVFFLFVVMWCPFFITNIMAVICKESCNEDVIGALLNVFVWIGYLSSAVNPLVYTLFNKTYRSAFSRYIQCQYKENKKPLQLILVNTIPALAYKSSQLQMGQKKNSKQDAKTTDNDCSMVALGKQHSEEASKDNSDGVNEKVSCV
PROTOCOL SUMMARY: Binding assay 5-HT2A (h), [3H]ketanserin, HEK-293 cells
Set-up: expressed in transfected cells; host or cells: HEK-293 cells
STATED CONDITIONS: read-out: 5-HT2A
Mark class 1 for reported inhibition at 1 µM of 90% or greater; mark class 0 for anything smaller.

{"SMILES STRING": "Cc1cccc(S(=O)(=O)NCCCCN2CCN(c3nsc4ccccc34)CC2)c1", "CLASS NAME": "class 1"}
{"SMILES STRING": "O=S(=O)(NCCCN1CCC(c2noc3cc(F)ccc23)CC1)c1ccc2cn[nH]c2c1", "CLASS NAME": "class 1"}
{"SMILES STRING": "O=S(=O)(NCCCCN1CCN(c2nsc3ccccc23)CC1)c1cc2ccccc2s1", "CLASS NAME": "class 1"}
{"SMILES STRING": "O=S(=O)(NCCCN1CCN(c2cccc3c2OCCO3)CC1)c1ccc(-c2ccccc2)cc1", "CLASS NAME": "class 0"}
{"SMILES STRING": "O=S(=O)(NCCCCN1CCN(c2cccc3c2OCCO3)CC1)c1ccc(-c2ccccc2)cc1", "CLASS NAME": "class 0"}
{"SMILES STRING": "O=c1[nH]c2cccc(N3CCN(CCCNS(=O)(=O)c4cccc5ccccc45)CC3)c2[nH]1", "CLASS NAME": "class 0"}
{"SMILES STRING": "CC(C)(C)c1ccc(S(=O)(=O)NCCCCN2CCC(c3noc4cc(F)ccc34)CC2)cc1", "CLASS NAME": "class 1"}
{"SMILES STRING": "O=S(=O)(NCCCN1CCN(c2nsc3ccccc23)CC1)c1ccc(F)c(F)c1", "CLASS NAME": "class 1"}
{"SMILES STRING": "O=S(=O)(NCCCCN1CCC(c2noc3cc(F)ccc23)CC1)c1csc2ccccc12", "CLASS NAME": "class 1"}
{"SMILES STRING": "O=S(=O)(NCCCCN1CCN(c2nsc3ccccc23)CC1)c1ccc(-c2ccccc2)cc1", "CLASS NAME": "class 0"}
{"SMILES STRING": "COc1cccc(S(=O)(=O)NCCCCN2CCC(c3noc4cc(F)ccc34)CC2)c1", "CLASS NAME": "class 1"}
{"SMILES STRING": "O=S(=O)(NCCCCN1CCN(c2cccc3c2OCCO3)CC1)c1ccc(Cl)s1", "CLASS NAME": "class 0"}
{"SMILES STRING": "O=S(=O)(NCCCN1CCN(c2nsc3ccccc23)CC1)c1ccc2cc(Cl)ccc2c1", "CLASS NAME": "class 1"}
